system: H630 cells; test: Colony formation assay; settings: read-out: IC50 for inhibition of cell growth in a clonogenic assay; H630 cells, FIG. 9B solid circles
endpoint: IC50

Exercise: Record "CCCCCCCCCC(=O)CC(=O)N[C@H]1CCOC1=O" : what is its IC50 with H630 cells?
Key: ~10 µM
